biological target: PDE7B (Homo sapiens (Human)); assay: PDE inhibition, recombinant PDE7B (SPA); conditions: Isoenzyme PDE7B
Sequence (Q9NP56 whole entry): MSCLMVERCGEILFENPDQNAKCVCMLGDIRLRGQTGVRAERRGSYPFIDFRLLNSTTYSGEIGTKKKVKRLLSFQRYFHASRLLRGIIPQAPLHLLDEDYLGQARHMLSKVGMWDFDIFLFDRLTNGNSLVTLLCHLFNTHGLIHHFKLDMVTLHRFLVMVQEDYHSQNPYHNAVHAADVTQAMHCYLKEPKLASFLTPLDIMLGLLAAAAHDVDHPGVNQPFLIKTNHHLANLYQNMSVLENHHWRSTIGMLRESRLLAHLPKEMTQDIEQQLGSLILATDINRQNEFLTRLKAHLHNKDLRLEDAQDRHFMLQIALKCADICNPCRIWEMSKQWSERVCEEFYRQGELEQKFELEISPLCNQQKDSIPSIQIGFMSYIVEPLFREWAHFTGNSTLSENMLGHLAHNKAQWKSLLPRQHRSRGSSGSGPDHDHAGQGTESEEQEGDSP

mol: CCC(CC)n1ncc2c(=O)[nH]c(CC3CCCCC3)nc21
IC50: > 4 µM

---

target: PDE11 (Homo sapiens (Human), UniProt Q9HCR9); test: PDE inhibition, recombinant PDE11A (SPA); settings: Isoenzyme PDE11, human
Sequence (Q9HCR9 445-933, change not shown): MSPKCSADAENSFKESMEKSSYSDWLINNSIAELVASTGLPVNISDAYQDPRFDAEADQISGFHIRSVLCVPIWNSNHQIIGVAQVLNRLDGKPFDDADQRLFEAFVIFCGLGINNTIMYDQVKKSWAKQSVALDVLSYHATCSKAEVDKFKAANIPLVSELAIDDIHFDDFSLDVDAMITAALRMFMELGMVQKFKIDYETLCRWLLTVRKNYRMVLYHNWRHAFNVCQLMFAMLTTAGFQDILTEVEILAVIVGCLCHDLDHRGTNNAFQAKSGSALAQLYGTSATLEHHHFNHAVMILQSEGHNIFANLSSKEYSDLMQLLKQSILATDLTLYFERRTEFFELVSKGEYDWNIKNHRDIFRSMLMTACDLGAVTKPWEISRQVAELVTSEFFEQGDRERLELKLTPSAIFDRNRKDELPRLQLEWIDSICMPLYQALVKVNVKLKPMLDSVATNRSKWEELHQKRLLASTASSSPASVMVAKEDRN
resultType: IC50

molecule: CCC(CC)n1ncc2c(=O)[nH]c(CC3CCCCC3)nc21 [Example 2]
dataValue: > 4 µM

---

molecular target: UniProt:Q13370; assay: PDE inhibition, recombinant PDE3B (SPA); conditions: Isoenzyme PDE3B
Sequence (Q13370 whole entry): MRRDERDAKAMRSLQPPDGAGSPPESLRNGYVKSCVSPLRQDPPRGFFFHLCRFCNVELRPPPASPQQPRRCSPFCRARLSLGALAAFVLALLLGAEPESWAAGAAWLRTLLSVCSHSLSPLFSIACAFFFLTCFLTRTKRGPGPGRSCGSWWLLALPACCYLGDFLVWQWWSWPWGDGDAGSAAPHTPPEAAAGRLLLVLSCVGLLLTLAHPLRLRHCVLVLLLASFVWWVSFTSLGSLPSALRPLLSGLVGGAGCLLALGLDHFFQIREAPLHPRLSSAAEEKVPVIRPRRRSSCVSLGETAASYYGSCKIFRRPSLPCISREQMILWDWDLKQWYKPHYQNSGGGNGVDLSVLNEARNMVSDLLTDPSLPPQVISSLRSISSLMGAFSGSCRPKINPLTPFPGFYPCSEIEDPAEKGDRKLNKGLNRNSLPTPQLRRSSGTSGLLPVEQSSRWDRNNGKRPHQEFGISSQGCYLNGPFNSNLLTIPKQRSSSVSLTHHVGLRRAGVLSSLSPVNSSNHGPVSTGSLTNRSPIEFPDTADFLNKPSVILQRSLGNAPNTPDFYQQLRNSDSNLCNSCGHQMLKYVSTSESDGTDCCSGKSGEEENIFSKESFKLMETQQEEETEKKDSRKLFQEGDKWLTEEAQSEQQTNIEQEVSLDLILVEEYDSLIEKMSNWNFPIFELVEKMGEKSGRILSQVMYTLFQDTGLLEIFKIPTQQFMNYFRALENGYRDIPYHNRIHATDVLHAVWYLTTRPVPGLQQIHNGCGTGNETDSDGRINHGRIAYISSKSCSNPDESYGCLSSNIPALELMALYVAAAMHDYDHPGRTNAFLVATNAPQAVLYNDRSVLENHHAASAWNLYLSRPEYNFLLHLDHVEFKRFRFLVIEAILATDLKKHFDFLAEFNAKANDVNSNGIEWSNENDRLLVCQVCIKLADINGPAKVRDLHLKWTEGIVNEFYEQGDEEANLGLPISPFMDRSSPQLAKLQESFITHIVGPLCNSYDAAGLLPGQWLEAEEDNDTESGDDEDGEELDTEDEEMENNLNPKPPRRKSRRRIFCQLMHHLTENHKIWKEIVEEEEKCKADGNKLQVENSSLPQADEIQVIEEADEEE

mol: CCC(CC)n1ncc2c(=O)[nH]c(CC3CCCCC3)nc21
IC50: > 4 µM
